- MEASUREMENT TARGET: Tag-free human IL6 recombinant protein (GenScript, Cat. No. Z03034) (human, UniProt P05231 30-212)
- Sequence (P05231 30-212, one chain of several): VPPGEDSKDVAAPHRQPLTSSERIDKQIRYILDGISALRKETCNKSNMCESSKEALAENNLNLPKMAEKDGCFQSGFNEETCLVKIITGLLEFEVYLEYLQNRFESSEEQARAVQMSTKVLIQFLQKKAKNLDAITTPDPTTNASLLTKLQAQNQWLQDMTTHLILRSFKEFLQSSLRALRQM
- PROCEDURE DETAILS: SPR (Biacore)
pKd: −log10 of the molar value.
Listing of recorded pKd by entry.

| BINDER | pKd |
| --- | --- |
| 53A2F9 (rat) (antibody, V domains shown) VH: QVQLKESGPGLVQPSQTLSLTCTVSGFSLTSHTVSWIRQPPGRGLEWMGKMWSNGDTDYDSAIRSRLSITRDTSKSQVFLKINSLQTEDTAMYFCARYYFSSYGGGYFDYWGQGVMVTVSS VL: DTVLTQSPALAVSLGQRVTISCRASKSVSTYMHWYQQKSGQQPKLLIYSASNLESGVPSRFSGSGSGTDFTLTIDPVEADDIANYYCQQSDELPDTFGAGTKLELK | 13.65 |
| 61G1D8 (rat) (antibody, V domains shown) VH: EVQLLESGGGLVQPGRSMKLSCAASGFTFSSFPMAWVRQTPSKALEWVATISPSGGTSYSRDSVKGRFTISRDNANSTLCLHMDSLKSEDTATYYCLRERIYNTYFDYWGQGVMVTVSS VL: DIRMTHSPASLSASLGETVSIECLPSEDISSDLAWYQQKPGKSPQLLIYNANTLPNGVPSRFSGSRSGAQYFLKINSLQSEDVATYFCQQYDSYPYTFGTGTKLELK | 9.64 |
| 49F10H6 (antibody, V domains shown) VH: QVQLQQPGAELVKPGASVKMSCKASGYTFTNYIIHWIKQTPGQGLEWIGAIYPGNGDTSYSQKFKDKATLTADRSSSTAYMQLSSLTSEDSAVYYCARGDAGYSAWFAYWGQGTLVTVSA VL: NIVLTQSPASLAVSLGQRATISCSASESVDSYGNNFMHWYQQRPGQPPKLLIYLASKLESGVPARFSGSGSRTEFTLTIDPVEAEDAATYYCQQNNEDPLTFGAGTKLELK | 9.58 |
| 23A9H3 (antibody, V domains shown) VH: QVQLQQSGAELAKPGASVKMSCKTSGYTFTNYWMHWVKQRPGQGLEWIGYVIPSTGYTDYNQSFKDKATLTADKSSNTAYMQVNSLTSEDSAVYYCASLLPGFAYWGQGTLVTVSA VL: DVVMTQTPLSLPVSLGDQASISCRSSQSLVDSNGNTYLHWYLQKPGQSPKLLIYKVSNRFSGVPDRFSGSGSGTDFTLKISRVEAEDLGVYFCSQSTHVPPTFGGGTKLEIK | 8.06 |
